The following compounds are listed with their measured Brightness (ϕ × ε) values.
Settings: spirolactone dyes; ϕ in PBS × ε in EtOH/0.1% TFA
Reported property: Brightness (ϕ × ε)

# Compound, Result value
rows = [
    ("C[Si]1(C)c2cc(N3CCC3)ccc2C2(OC(=O)c3ccccc32)c2ccc(N3CCC3)cc21 [Compound 031, reference compound]", "70,200"),
    ("CN(C)c1ccc2c(c1)[Si](C)(C)c1cc(N(C)C)ccc1C21OC(=O)c2ccccc21 [Compound 032, reference compound]", "49,400"),
    ("CN(C)c1ccc2c(c1)[Si@](C)(CCCCl)c1cc(N(C)C)ccc1[C@]21OC(=O)c2ccccc21", "80,000"),
    ("CN(C)c1ccc2c(c1)[Si@](C)(CCCCl)c1cc(N(C)C)ccc1[C@@]21OC(=O)c2ccccc21", "80,000"),
]

###

Details: PBS, pH 7.4
The following compounds are listed with their measured ϕ (quantum yield) values.
Reported property: ϕ (quantum yield)

# Compound, Reported property, Result value
rows = [
    ("C=C[Si]1(C=C)c2cc3c(cc2C(c2ccccc2C)=c2cc4c(cc21)=[N+](C)CCC4)CCCN3C [Compound 017]", "ϕ (quantum yield)", 0.32),
    ("CN(C)c1ccc2c(c1)[Si@](C)(CCCN=[N+]=[N-])c1cc(N(C)C)ccc1[C@@]21OC(=O)c2ccccc21 [Compound 054]", "ϕ (quantum yield)", 0.44),
    ("CN(C)c1ccc2c(c1)[Si@](C)(CCCCl)c1cc(N(C)C)ccc1[C@]21OC(=O)c2ccccc21 [Compound 037]", "ϕ (quantum yield)", 0.40),
    ("Cc1ccccc1C1=C2C=CC(=[N+](C)C)C=C2[Si](c2ccccc2)(c2ccccc2)c2cc(N(C)C)ccc21 [Compound 007]", "ϕ (quantum yield)", 0.35),
    ("Cc1ccccc1C1=c2cc3c(cc2[Si](C)(CCCCl)c2cc4c(cc21)CCCN4C)=[N+](C)CCC3 (stereo not drawn) [Compound 019]", "ϕ (quantum yield)", 0.33),
    ("COc1cccc(OC)c1C1=C2C=CC(=[N+]3CCC3)C=C2[Si](C)(CCCCl)c2cc(N3CCC3)ccc21 (stereo not drawn) [Compound 029]", "ϕ (quantum yield)", 0.48),
]

###

Conditions: PBS
Reported property: ε (M^−1 cm^−1)

# Compound, Reported property, Result value
records = [
    ("Cc1ccccc1C1=C2C=CC(=[N+]3CCC3)C=C2[Si](C)(C)c2cc(N3CCC3)ccc21 [Compound 024, reference compound]", "ε (M^−1 cm^−1)", "118,000 M^−1 cm^−1"),
    ("Cc1ccccc1C1=C2C=CC(=[N+](C)C)C=C2[Si](c2ccccc2)(c2ccccc2)c2cc(N(C)C)ccc21 [Compound 007]", "ε (M^−1 cm^−1)", "120,900 M^−1 cm^−1"),
    ("Cc1ccccc1C1=C2C=CC(=[N+](C)C)C=C2[Si](C)(c2cccc(N(C)C)c2)c2cc(N(C)C)ccc21 (centres unmarked) [Compound 008]", "ε (M^−1 cm^−1)", "154,200 M^−1 cm^−1"),
    ("COc1cccc(OC)c1C1=C2C=CC(=[N+]3CCC3)C=C2[Si](C)(CCCCl)c2cc(N3CCC3)ccc21 (centres unmarked) [Compound 029]", "ε (M^−1 cm^−1)", "180,000 M^−1 cm^−1"),
    ("Cc1ccccc1C1=C2C=CC(=[N+](C)C)C=C2[Si]2(CCCCC2)c2cc(N(C)C)ccc21 [Compound 014]", "ε (M^−1 cm^−1)", "170,000 M^−1 cm^−1"),
    ("COc1cccc(OC)c1C1=C2C=CC(=[N+](C)C)C=C2[Si](C)(CCCCl)c2cc(N(C)C)ccc21 (centres unmarked) [Compound 030]", "ε (M^−1 cm^−1)", "200,000 M^−1 cm^−1"),
    ("CC[Si]1(CC)C2=CC(=[N+](C)C)C=CC2=C(c2ccccc2C)c2ccc(N(C)C)cc21 [Compound 002]", "ε (M^−1 cm^−1)", "164,900 M^−1 cm^−1"),
    ("Cc1ccccc1C1=C2C=CC(=[N+](C)C)C=C2[Si](C)(C)c2cc(N(C)C)ccc21 [Compound 001, reference compound]", "ε (M^−1 cm^−1)", "126,400 M^−1 cm^−1"),
    ("Cc1ccccc1C1=c2cc3c(cc2[Si](C)(CCCCl)c2cc4c(cc21)CCCN4C)=[N+](C)CCC3 (centres unmarked) [Compound 019]", "ε (M^−1 cm^−1)", "125,000 M^−1 cm^−1"),
    ("C=C[Si]1(C=C)c2cc3c(cc2C(c2ccccc2C)=c2cc4c(cc21)=[N+](C)CCC4)CCCN3C [Compound 017]", "ε (M^−1 cm^−1)", "234,700 M^−1 cm^−1"),
    ("Cc1ccccc1C1=C2C=CC(=[N+](C)C)C=C2[Si]2(CCCC2)c2cc(N(C)C)ccc21 [Compound 028]", "ε (M^−1 cm^−1)", "158,000 M^−1 cm^−1"),
    ("C=C[Si]1(C=C)C2=CC(=[N+]3CCC3)C=CC2=C(c2ccccc2C)c2ccc(N3CCC3)cc21 [Compound 026]", "ε (M^−1 cm^−1)", "109,700 M^−1 cm^−1"),
    ("C=C[Si]1(C=C)c2cc3c(cc2C(c2ccccc2C)=c2cc4c(cc21)=[N+](C)CC4)CCN3C [Compound 021]", "ε (M^−1 cm^−1)", "136,100 M^−1 cm^−1"),
    ("Cc1ccccc1C1=C2C=CC(=[N+](C)C)C=C2[Si](C)(c2ccccc2)c2cc(N(C)C)ccc21 (centres unmarked) [Compound 004]", "ε (M^−1 cm^−1)", "99,140 M^−1 cm^−1"),
    ("Cc1ccccc1C1=c2cc3c(cc2[Si](c2ccccc2)(c2ccccc2)c2cc4c(cc21)CCN4C)=[N+](C)CC3 [Compound 022]", "ε (M^−1 cm^−1)", "117,000 M^−1 cm^−1"),
    ("C=C[Si]1(C)C2=CC(=[N+](C)C)C=CC2=C(c2ccccc2C)c2ccc(N(C)C)cc21 (centres unmarked) [Compound 003]", "ε (M^−1 cm^−1)", "141,400 M^−1 cm^−1"),
    ("C=C[Si]1(C=C)C2=CC(=[N+](C)C)C=CC2=C(c2ccccc2C)c2ccc(N(C)C)cc21 [Compound 006]", "ε (M^−1 cm^−1)", "158,300 M^−1 cm^−1"),
    ("C=C[Si]1(c2ccccc2)C2=CC(=[N+](C)C)C=CC2=C(c2ccccc2C)c2ccc(N(C)C)cc21 (centres unmarked) [Compound 005]", "ε (M^−1 cm^−1)", "150,700 M^−1 cm^−1"),
    ("Cc1ccccc1C1=c2cc3c(cc2[Si](C)(CCCCl)c2cc4c(cc21)CCN4C)=[N+](C)CC3 (centres unmarked) [Compound 023]", "ε (M^−1 cm^−1)", "129,100 M^−1 cm^−1"),
    ("Cc1ccccc1C1=c2cc3c(cc2[Si](c2ccccc2)(c2ccccc2)c2cc4c(cc21)CCCN4C)=[N+](C)CCC3 [Compound 018]", "ε (M^−1 cm^−1)", "148,300 M^−1 cm^−1"),
    ("Cc1ccccc1C1=C2C=CC(=[N+]3CCC3)C=C2[Si](c2ccccc2)(c2ccccc2)c2cc(N3CCC3)ccc21 [Compound 025]", "ε (M^−1 cm^−1)", "154,200 M^−1 cm^−1"),
    ("Cc1ccccc1C1=C2C=CC(=[N+](C)C)C=C2[Si](C)(CCC(F)(F)F)c2cc(N(C)C)ccc21 (centres unmarked) [Compound 010]", "ε (M^−1 cm^−1)", "112,900 M^−1 cm^−1"),
    ("Cc1ccccc1C1=C2C=CC(=[N+]3CCC3)C=C2[Si](C)(CCCCl)c2cc(N3CCC3)ccc21 (centres unmarked) [Compound 027]", "ε (M^−1 cm^−1)", "166,700 M^−1 cm^−1"),
    ("Cc1ccccc1C1=C2C=CC(=[N+](C)C)C=C2[Si](C)(CCCCl)c2cc(N(C)C)ccc21 (centres unmarked) [Compound 009]", "ε (M^−1 cm^−1)", "180,600 M^−1 cm^−1"),
    ("Cc1ccccc1C1=C2C=CC(=[N+](C)C)C=C2[Si](C)([C@H]2CC3C=CC2C3)c2cc(N(C)C)ccc21 (some centres unmarked) [Compound 013]", "ε (M^−1 cm^−1)", "160,000 M^−1 cm^−1"),
]
